target_or_test_system: His6-OSR1 CCT (human OSR1 433-527) (human, UniProt O95747 433-527)
Sequence (O95747 433-527): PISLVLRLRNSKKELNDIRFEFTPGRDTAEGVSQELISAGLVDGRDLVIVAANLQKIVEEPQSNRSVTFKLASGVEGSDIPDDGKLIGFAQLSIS
method: fluorescence polarisation
Where no end group is shown, it is not given here. [ ]: non-standard residue; d: D form. pS = N[C@@H](COP(=O)(O)O)C(=O)O
For each record, write down the corresponding fold decrease in affinity relative to wild type.

Problem: What value of fold decrease in affinity relative to wild type has been reported for the following binder? SAGRRFIV[pS]PVPE [hWNK1 1253-1265 peptide phosphorylated on serine at the +3 position]
Solution: ~2.5 fold

Problem: Also SAGARFIVSPVPE [hWNK1 1253-1265 peptide, first arginine of RRF to alanine] , if possible.
Solution: ~1.5 fold

Problem: # iterate: SAGRAFIVSPVPE [hWNK1 1253-1265 R1257A peptide SAGRAFIVSPVPE]
Solution: ~3.1 fold

Problem: Lookup SAGHAFIVSPVPE [hWNK1 1253-1265 peptide, arginines replaced with histidine-alanine]
Solution: 11 fold

Problem: How about SAGHHFIVSPVPE [hWNK1 1253-1265 peptide, arginines replaced with histidine-histidine] ?
Solution: ~7 fold
